SYSTEM: Induced myeloid leukemia cell differentiation protein Mcl-1 (Homo sapiens)
PROTOCOL NOTES: MCL1-BIM peptide interaction disruptors – biochemical, fluorescence polarization, primary screen (AID 2057);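 note: 0% = DMSO wells and 100% = unlabeled Bim-BH3 peptide control; higher means more loss of mP so more displacement of Bim peptide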
TEST PARAMETERS: GST-MCL1 / FITC-Bim-BH3 fluorescence polarization; at 10.9 µM; stronger effect = higher value
Out of some 320,000 compounds screened, about 2,100 (0.66%) were called active. The entries come from a sample that favours actives as a whole.
OUTCOME MEASURE: inhibition

COc1cccc(-c2nc(CS(=O)CC(=O)NCc3ccc(F)cc3)c(C)o2)c1 (configuration not stated) :: 0.44% (inactive)
COC(=O)C1=C(Nc2ccc(C)cc2)C=C(C)C(C(=O)OC)C1c1ccc(F)cc1 (configuration not stated) :: -0.87% (inactive)
CC12CCC(C(=O)N(c3cccc(Cl)c3)C1=O)C2(C)C (configuration not stated) :: 4.99% (inactive)
COc1ccc(-c2nc(CS(=O)CC(=O)NCc3ccccn3)c(C)o2)cc1 (configuration not stated) :: 111% (active)
Cc1coc2c(O)cc3c(c12)OC1(N2CCCCC2)C(=O)NCCCC31 (configuration not stated) :: 48.6% (active)

query: Fill in the blank: the reported inhibition of CCCCC(NC(=O)c1cccc(Br)c1)C(=O)O (configuration not stated) is ____.
result: -0.19% (inactive)

query: Fill in the blank: the reported inhibition of COCCCNC(=O)CNC(=S)N(Cc1cc(OC)c(OC)c(OC)c1)C1CCCC1 is ____.
result: -4.92% (inactive)

query: Fill in the blank: the reported inhibition of Cc1cccc[n+]1CC(=O)c1ccccc1 is ____.
result: 9.96% (inactive)

query: Fill in the blank: the reported inhibition of CCOP1(=O)C=C(C(C)(C)C)OC1c1ccc(F)cc1 (configuration not stated) is ____.
result: -0.66% (inactive)

query: Fill in the blank: the reported inhibition of CC1=C(C(=O)OC(C)(C)C)C(c2ccc(Br)cc2)NC(=O)N1CCCC(=O)O (configuration not stated) is ____.
result: 2.27% (inactive)

----------
Below: a set of entries, each annotated with reported inhibition.
SYSTEM: Induced myeloid leukemia cell differentiation protein Mcl-1 (Homo sapiens)
PROTOCOL NOTES: MCL1-BIM peptide interaction disruptors – biochemical, fluorescence polarization, primary screen (AID 2057)
TEST PARAMETERS: GST-MCL1 / FITC-Bim-BH3 fluorescence polarization; at 10.9 µM; stronger effect = higher value
Among all 320,000 compounds or so, about 2,100 (0.66%) were called active. What follows is part of a selection rich in actives, with near analogues and random picks from the rest.
The response must be a number in % with no trailing unit.

Below: 5 molecules and their reported inhibition.
CCC(CC)c1nnc(NC(=O)/C=C/c2ccco2)s1 :: -2.29
O=C1CCN(C(=O)Nc2ccccc2)N1 :: -0.78
Cc1cccc(-c2nc(Nc3ccc(O)cc3)c3ccccc3n2)c1 :: 3.74
CCc1nnc(SCc2cccc(F)c2)nc1CC :: 0.71
CCN1CC=C2C(C#N)=C(N)C(C#N)(C#N)[C@H](c3ccoc3)[C@H]2C1 :: 171

Query molecule follows.
query: Can you look up inhibition on Induced myeloid leukemia cell differentiation protein Mcl-1 (Homo sapiens) for COc1ccc(Nc2nc(-c3cccnc3)nc3ccccc23)cn1 ?
result: 128

----------
SYSTEM: Induced myeloid leukemia cell differentiation protein Mcl-1 (Homo sapiens) (UniProt Q07820)
Sequence (Q07820 whole entry, looked up): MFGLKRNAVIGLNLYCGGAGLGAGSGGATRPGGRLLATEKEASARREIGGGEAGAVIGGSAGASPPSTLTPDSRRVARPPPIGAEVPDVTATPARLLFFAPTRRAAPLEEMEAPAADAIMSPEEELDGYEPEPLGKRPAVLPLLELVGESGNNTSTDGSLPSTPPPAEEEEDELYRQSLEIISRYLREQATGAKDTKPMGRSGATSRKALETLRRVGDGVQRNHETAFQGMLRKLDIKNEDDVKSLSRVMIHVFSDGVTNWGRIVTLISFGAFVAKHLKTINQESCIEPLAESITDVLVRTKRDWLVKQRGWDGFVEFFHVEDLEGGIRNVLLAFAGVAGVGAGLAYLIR
PROTOCOL NOTES: MCL1-BIM peptide interaction disruptors – biochemical, fluorescence polarization, primary screen (AID 2057);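 note: 0% = DMSO wells and 100% = unlabeled Bim-BH3 peptide control; higher means more loss of mP so more displacement of Bim peptide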
TEST PARAMETERS: GST-MCL1 / FITC-Bim-BH3 fluorescence polarization; at 10.9 µM; stronger effect = higher value
The whole screen tested about 320,000 compounds, of which about 2,100 (0.66%) were called active. The sample holds actives, similar compounds and a random draw of the others, so the mix is not that of the screen.
Below: a set of entries, each annotated with reported inhibition.

Below: 10 compounds and their reported inhibition.
Cc1ccc(/C=C(\C#N)C(=O)Nc2cccc3ncccc23)o1 :: 138% (active)
Nc1nc(NCC(=O)O)nc(N2CCCCCC2)c1[N+](=O)[O-] :: 1.22% (inactive)
CCOc1ccc(NC(=O)CCCCCN2C(=O)[C@@H]3Cc4ccccc4CN3C2=O)cc1 :: 6.32% (inactive)
Cc1c(Nc2cc(N3CCCC(C)C3)c3nonc3c2[N+](=O)[O-])c(=O)n(-c2ccccc2)n1C (stereo unspecified) :: -0.42% (inactive)
O=[N+]([O-])c1cc([N+](=O)[O-])c(Oc2cc(F)cc(F)c2F)cc1NN1CCCCC1 :: -1.7% (inactive)
Cc1ccc(S(=O)(=O)N2CC(C)N(S(C)(=O)=O)C2)cc1 (stereo unspecified) :: 7.35% (inactive)
C=CCOc1cccc(C2C(C(=O)c3ccc(C)o3)=C(O)C(=O)N2CCCn2ccnc2)c1 (stereo unspecified) :: -4.11% (inactive)
CCCOc1ccc(C2c3c(oc4cc(C)c(C)cc4c3=O)C(=O)N2CCCN2CCOCC2)cc1 (stereo unspecified) :: 14.2% (inactive)
Nc1cc(N2CCCCCC2)c2nonc2c1[N+](=O)[O-] :: 48% (active)
C=CCc1cccc(/C=N/NC(=O)COc2ccc(-n3cnnn3)cc2)c1O :: 11.2% (inactive)

query: Fill in the blank: the reported inhibition of CCOc1ccc2nc(N3CCCN(C(=O)Nc4ccccc4C)CC3)c(C#N)cc2c1 is ____.
result: 48.6% (active)

query: Fill in the blank: the reported inhibition of COc1ccccc1/C=C/C(=O)NC(=S)N1CCOCC1 is ____.
result: -5.3% (inactive)

query: Fill in the blank: the reported inhibition of CCCSC(=S)NC1CCS(=O)(=O)C1 (stereo unspecified) is ____.
result: 2.09% (inactive)

query: Fill in the blank: the reported inhibition of Cc1cc(Cl)ccc1NNC(=O)c1snnc1C is ____.
result: 6.52% (inactive)

query: Fill in the blank: the reported inhibition of CCOC(=O)c1cc(C#N)c(N2CCCCC2)nc1-c1ccccc1 is ____.
result: 2.02% (inactive)

query: Fill in the blank: the reported inhibition of Cc1ccc(Cc2cnc(NC(=O)/C(C#N)=C/c3ccc(-c4cccc([N+](=O)[O-])c4)o3)s2)cc1 is ____.
result: -0.71% (inactive)

----------
Below: a set of entries, each annotated with reported inhibition.
SYSTEM: Induced myeloid leukemia cell differentiation protein Mcl-1 (Homo sapiens) (UniProt Q07820)
PROTOCOL NOTES: MCL1-BIM peptide interaction disruptors – biochemical, fluorescence polarization, primary screen (AID 2057);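 note: 0% = DMSO wells and 100% = unlabeled Bim-BH3 peptide control; higher means more loss of mP so more displacement of Bim peptide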
TEST PARAMETERS: GST-MCL1 / FITC-Bim-BH3 fluorescence polarization; at 10.9 µM; stronger effect = higher value
In all, about 320,000 compounds went through this assay and about 2,100 (0.66%) were called active. What follows is part of a selection rich in actives, with near analogues and random picks from the rest.
The response must be a number in % with no trailing unit.

Below: 5 compounds and their reported inhibition.
CCCn1c(C2CCCN2c2nc(-c3ccc(OC)cc3)cs2)nc2ccccc21 (centres undefined) :: 11.8
O=c1[nH]n2c(-c3ccccc3)nc(O)c2c2ccccc12 :: -5.68
Cc1nn(C(=O)c2ccoc2C)c(N)c1-c1ccccc1 :: 193
Cc1nc2cc(NC(=O)NCc3ccccc3)ccc2o1 :: -6.46
O=C(COC(=O)/C=C/c1ccc(OC(F)F)cc1)NC1CCCCC1 :: -2.99

query: Fill in the blank: the reported inhibition of NC1=NC2(CCCCC2)N(c2ccc(F)cc2F)C(N)=N1 is ____.
result: 10.2

query: Fill in the blank: the reported inhibition of Cc1ccnc(NC(=O)c2ccoc2C)c1 is ____.
result: 42.1

query: Fill in the blank: the reported inhibition of Cc1cc(-c2csc(N)n2)c(C)n1Cc1ccccc1 is ____.
result: 6.96

query: Fill in the blank: the reported inhibition of CCOc1ccc(C2C3=C(CCCC3=O)N(CC(=O)O)C3=C2C(=O)CCC3)cc1 is ____.
result: 17.6

----------
Below: a set of entries, each annotated with reported inhibition.
SYSTEM: Induced myeloid leukemia cell differentiation protein Mcl-1 (Homo sapiens) (UniProt Q07820)
PROTOCOL NOTES: MCL1-BIM peptide interaction disruptors – biochemical, fluorescence polarization, primary screen (AID 2057);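 note: 0% = DMSO wells and 100% = unlabeled Bim-BH3 peptide control; higher means more loss of mP so more displacement of Bim peptide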
TEST PARAMETERS: GST-MCL1 / FITC-Bim-BH3 fluorescence polarization; at 10.9 µM; stronger effect = higher value
Screen size: about 320,000 compounds; about 2,100 (0.66%) were called active. This excerpt belongs to a sample that is enriched for actives.
The response must be a number in % with no trailing unit.

O=C(Nc1nccs1)c1cc(S(=O)(=O)N2CCOCC2)c(Cl)cc1Cl :: 5.02
CN(C(=O)COC(=O)c1cc(=O)[nH]c2ccccc12)C1CCCCC1 :: 1.49
C#CCNC(=O)[C@H](Cc1ccc(C(=O)c2ccccc2)cc1)NC(=O)OC(C)(C)C :: -1.48
CCCn1c(C(C)Nc2nc(-c3ccc(C)cc3)cs2)nc2cc(Cl)c(N3CCCCC3)cc21 (stereo not given) :: 5.75

query: Fill in the blank: the reported inhibition of O=c1[nH]c(=S)[nH]c2[nH]c(=S)[nH]c12 is ____.
result: 92.7

Origin of values: PubChem BioAssay AID2057
